Recorded abundance fitness, one value per entry.
B1: Ventral anterior homeobox 1, residues 102 to 157; numbered along this chain, Q5SQQ9 (parent)
chain: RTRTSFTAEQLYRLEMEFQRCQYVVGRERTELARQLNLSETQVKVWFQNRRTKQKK

- Variants of: B1
- Assay Remarks: abundance fitness (aPCA) (normalised: wild type 0, dead -1); higher = more abundant; growth selection in yeast, the domain comes from the species named
- Condition Notes: Homo sapiens
Property: abundance fitness

{"Variant String": "G26W", "Property": "abundance fitness", "Numeric Value": -0.892}
{"Variant String": "L36H", "Property": "abundance fitness", "Numeric Value": -0.569}
{"Variant String": "Q48W", "Property": "abundance fitness", "Numeric Value": -0.619}
{"Variant String": "F6C", "Property": "abundance fitness", "Numeric Value": -0.536}
{"Variant String": "N49I", "Property": "abundance fitness", "Numeric Value": -0.069}
{"Variant String": "Y12W", "Property": "abundance fitness", "Numeric Value": 0.001}
{"Variant String": "K56A", "Property": "abundance fitness", "Numeric Value": -0.291}
{"Variant String": "E40K", "Property": "abundance fitness", "Numeric Value": -0.676}
{"Variant String": "S39E", "Property": "abundance fitness", "Numeric Value": -0.115}
{"Variant String": "T2K", "Property": "abundance fitness", "Numeric Value": -0.202}
{"Variant String": "C21F", "Property": "abundance fitness", "Numeric Value": -0.21}
{"Variant String": "R3M", "Property": "abundance fitness", "Numeric Value": 0.279}
{"Variant String": "E31K", "Property": "abundance fitness", "Numeric Value": -0.592}
{"Variant String": "R13F", "Property": "abundance fitness", "Numeric Value": -0.29}
{"Variant String": "V24S", "Property": "abundance fitness", "Numeric Value": -0.09}
{"Variant String": "S39D", "Property": "abundance fitness", "Numeric Value": 0.264}
{"Variant String": "N37A", "Property": "abundance fitness", "Numeric Value": -0.211}
{"Variant String": "N37E", "Property": "abundance fitness", "Numeric Value": -0.033}
{"Variant String": "E15D", "Property": "abundance fitness", "Numeric Value": -0.379}
{"Variant String": "R20G", "Property": "abundance fitness", "Numeric Value": -0.409}
{"Variant String": "G26D", "Property": "abundance fitness", "Numeric Value": -0.153}
{"Variant String": "R51H", "Property": "abundance fitness", "Numeric Value": -0.038}

Values compiled from the Human Domainome abundance scans (Beltran et al. 2025).
